- study-system: SpsB (Staphylococcus aureus signal peptidase) (Staphylococcus aureus, UniProt P0A070)
- Construct: a suspension of Staphylococcus aureus cells as a source of SpsB instead of recombinant SpsB protein; endogenous in cells; host or cells: S. aureus, USA300 background, overexpressing SpsB (whole-cell suspension)
- Sequence (P0A070 whole entry): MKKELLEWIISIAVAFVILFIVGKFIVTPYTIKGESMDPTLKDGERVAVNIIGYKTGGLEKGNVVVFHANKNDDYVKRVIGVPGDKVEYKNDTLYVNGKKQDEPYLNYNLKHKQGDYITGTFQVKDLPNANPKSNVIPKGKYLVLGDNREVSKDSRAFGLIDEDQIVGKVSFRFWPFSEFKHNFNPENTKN
- experiment-summary: Whole-cell SpsB biochemical screening assay (kinetic fluorogenic enzyme activity)
IC50 strictly less than 2 nM = y. Otherwise n.

Study these solved cases before continuing.
sample-smiles	study-system	group-label
CCCCCCCCc1ccc(C(=O)N[C@@H](CCN)C(=O)N(C)[C@@H]2C(=O)N[C@@H](C)C(=O)N[C@H](C(=O)NOC)Cc3ccc(OCCN)c(c3)-c3cc2ccc3OCCN)c(C)c1	SpsB (Staphylococcus aureus signal peptidase) (Staphylococcus aureus, UniProt P0A070)	y
CCCCCCCCCCCCCC(=O)N[C@@H](CCN)C(=O)N(C)[C@@H]1C(=O)N[C@@H](C)C(=O)N[C@H](c2noc(=O)[nH]2)Cc2ccc(OCCN)c(c2)-c2cc1ccc2OCCN	SpsB (Staphylococcus aureus signal peptidase) (Staphylococcus aureus, UniProt P0A070)	y
CCCCc1ccc(-c2ccc(C(=O)N[C@@H](CCCCN)C(=O)N(C)[C@@H]3C(=O)N[C@@H](C)C(=O)N[C@H](C(=O)Nc4ccncc4C#N)Cc4ccc(OCCN)c(c4)-c4cc3ccc4OCCN)cc2)cc1	SpsB (Staphylococcus aureus signal peptidase) (Staphylococcus aureus, UniProt P0A070)	n
CCCCCCCCc1ccc(C(=O)N[C@@H](CCN)C(=O)N(C)[C@@H]2C(=O)N[C@@H](C)C(=O)N[C@H](c3noc(=S)[nH]3)Cc3ccc(OCCN)c(c3)-c3cc2ccc3OCCN)c(C)c1	SpsB (Staphylococcus aureus signal peptidase) (Staphylococcus aureus, UniProt P0A070)	n
CCCCc1ccc(-c2ccc(C(=O)N[C@@H](CCCN)C(=O)N(C)[C@@H]3C(=O)N[C@@H](C)C(=O)N[C@H](C(=O)NS(N)(=O)=O)Cc4ccc(OCCN)c(c4)-c4cc3ccc4OCCN)cc2)cc1	SpsB (Staphylococcus aureus signal peptidase) (Staphylococcus aureus, UniProt P0A070)	y

Query :: Consider CCCCc1ccc(-c2ccc(C(=O)N[C@@H](CN)C(=O)N(C)[C@@H]3C(=O)N[C@@H](C)C(=O)N[C@H](c4nnn[nH]4)Cc4ccc(OCCN)c(c4)-c4cc3ccc4OCCN)cc2)cc1 . Does its IC50 lie strictly below 2 nM?
Result :: n

Query :: IC50 under 2 nM? Item: C#CCNC(=O)[C@@H]1Cc2ccc(OCCN)c(c2)-c2cc(ccc2OCCN)[C@H](N(C)C(=O)[C@H](CCCN)NC(=O)c2ccc(-c3ccc(CCCC)cc3)cc2)C(=O)N[C@@H](C)C(=O)N1
Result :: n

Query :: Consider CCCCc1ccc(-c2ccc(C(=O)N[C@@H](CCCN)C(=O)N(C)[C@@H]3C(=O)N[C@@H](C)C(=O)N[C@H](C(=O)NN)Cc4ccc(OCCN)c(c4)-c4cc3ccc4OCCN)cc2)cc1 . Does its IC50 lie strictly below 2 nM?
Result :: y

Query :: In the record for CCCCc1ccc(-c2ccc(C(=O)N[C@@H](CCCN)C(=O)N(C)[C@@H]3C(=O)N[C@@H](C)C(=O)N[C@H](c4ncc(C#N)[nH]4)Cc4ccc(OCCN)c(c4)-c4cc3ccc4OCCN)cc2)cc1 , is IC50 less than 2 nM?
Result :: n

Query :: Here's an entry: CCCCCCCCCCCCCC(=O)N[C@@H](CCCCN)C(=O)N(C)[C@@H]1C(=O)N[C@@H](C)C(=O)N[C@H](C(=O)NCCC#N)Cc2ccc(OCCN)c(c2)-c2cc1ccc2OCCN . Is its IC50 below 2 nM?
Result :: n

* * *

- System: Methicillin Resistant Staphylococcus aureus strain USA 300, NRS384 (S. aureus)
- experiment-summary: Minimum inhibitory concentration, broth micro-dilution (CLSI)
- Format: cell-based
- assay-setup: MRSA / NRS 384 / USA300, 22 h, read-out: MIC (μg/mL) S. aureus
measured-endpoint: log10 of MIC (log10 of the value in µg/mL)
Values below are the log10 of the recorded MIC, with µg/mL as the unit.

Solved entries (count: 5):
compound	reported-value
CCCCc1ccc(-c2ccc(C(=O)N[C@@H](CN)C(=O)N(C)[C@@H]3C(=O)N[C@@H](C)C(=O)N[C@H](C(=O)NC(C)=O)Cc4ccc(OCCN)c(c4)-c4cc3ccc4OCCN)cc2)cc1 [Compound 122]	0.18
CCCCc1ccc(-c2ccc(C(=O)N[C@@H](CCCN)C(=O)N(C)[C@@H]3C(=O)N[C@@H](C)C(=O)N[C@H](C(=O)NS(N)(=O)=O)Cc4ccc(OCCN)c(c4)-c4cc3ccc4OCCN)cc2)cc1 [Compound 128]	0.18
CCCCCCCc1ccc(C(=O)N[C@@H](CCN)C(=O)N(C)[C@@H]2C(=O)N[C@@H](C)C(=O)N[C@H](C(=O)O)Cc3ccc(OCCN)c(c3)-c3cc2ccc3OCCN)c(C)c1 [Compound 103]	-0.77
C=C(C#N)NC(=O)[C@@H]1Cc2ccc(OCCN)c(c2)-c2cc(ccc2OCCN)[C@H](N(C)C(=O)[C@H](CCCN)NC(=O)c2ccc(-c3ccc(CCCC)cc3)cc2)C(=O)N[C@@H](C)C(=O)N1 [Compound 130]	-0.42
CCCCCCCc1ccc(C(=O)N[C@@H](CCN)C(=O)N(C)[C@@H]2C(=O)N[C@@H](C)C(=O)N[C@H](C(=O)N[C@@H](C)C(=O)NOC(C)=O)Cc3ccc(OCCN)c(c3)-c3cc2ccc3OCCN)c(C)c1 [Compound 108]	-0.12

Query :: Param item = CCCCc1ccc(-c2ccc(C(=O)N[C@@H](CCCN)C(=O)N(C)[C@@H]3C(=O)N[C@@H](C)C(=O)N[C@H](/C=C/C#N)Cc4ccc(OCCN)c(c4)-c4cc3ccc4OCCN)cc2)cc1 [Compound 138] ; retrieve measured log10 of MIC.
Result :: 0.60

Query :: Which log10 of MIC is listed for CCCCc1ccc(-c2ccc(C(=O)N[C@@H](CCCN)C(=O)N(C)[C@@H]3C(=O)N[C@@H](C)C(=O)N[C@H](C(=O)NN)Cc4ccc(OCCN)c(c4)-c4cc3ccc4OCCN)cc2)cc1 [Compound 137] ?
Result :: -0.30

* * *

- study-system: SpsB (Staphylococcus aureus signal peptidase) (Staphylococcus aureus, UniProt P0A070)
- Construct: a suspension of Staphylococcus aureus cells as a source of SpsB instead of recombinant SpsB protein; endogenous in cells; host or cells: S. aureus, USA300 background, overexpressing SpsB (whole-cell suspension)
- experiment-summary: Whole-cell SpsB biochemical screening assay (kinetic fluorogenic enzyme activity)
Documented log10 of IC50 across a set of compounds
In our notation, the value equals log10 of IC50 in nM.

# example entries with known answers
compound	measured-endpoint	reported-value
CCCCCCCCc1ccc(C(=O)N[C@@H](CCN)C(=O)N(C)[C@@H]2C(=O)N[C@@H](C)C(=O)N[C@H](c3noc(=O)[nH]3)Cc3ccc(OCCN)c(c3)-c3cc2ccc3OCCN)c(C)c1 [Compound 131]	log10 of IC50	0.32
CCCCc1ccc(-c2ccc(C(=O)N[C@@H](CCCN)C(=O)N(C)[C@@H]3C(=O)N[C@@H](C)C(=O)N[C@H](C(=O)NO)Cc4ccc(OCCN)c(c4)-c4cc3ccc4OCCN)cc2)cc1 [Compound 136]	log10 of IC50	0.08
CCCCc1ccc(-c2ccc(C(=O)N[C@@H](CCCCN)C(=O)N(C)[C@@H]3C(=O)N[C@@H](C)C(=O)N[C@H](C(=O)NCCC#N)Cc4ccc(OCCN)c(c4)-c4cc3ccc4OCCN)cc2)cc1 [Compound 119]	log10 of IC50	1.85
CCCCc1ccc(-c2ccc(C(=O)N[C@@H](CN)C(=O)N(C)[C@@H]3C(=O)N[C@@H](C)C(=O)N[C@H](C#N)Cc4ccc(OCCN)c(c4)-c4cc3ccc4OCCN)cc2)cc1 [Compound 124]	log10 of IC50	1.15
CCCCc1ccc(-c2ccc(C(=O)N[C@@H](CN)C(=O)N(C)[C@@H]3C(=O)N[C@@H](C)C(=O)N[C@H](c4noc(=O)[nH]4)Cc4ccc(OCCN)c(c4)-c4cc3ccc4OCCN)cc2)cc1 [Compound 125]	log10 of IC50	0.00
CCCCc1ccc(-c2ccc(C(=O)N[C@@H](CCCN)C(=O)N(C)[C@@H]3C(=O)N[C@@H](C)C(=O)N[C@H](C(=O)NC#N)Cc4ccc(OCCN)c(c4)-c4cc3ccc4OCCN)cc2)cc1 [Compound 134]	log10 of IC50	0.85

Query :: What value of log10 of IC50 has been recorded for this entry: CCCCc1ccc(-c2ccc(C(=O)N[C@@H](CN)C(=O)N(C)[C@@H]3C(=O)N[C@@H](C)C(=O)N[C@H](c4n[nH]c(=O)[nH]4)Cc4ccc(OCCN)c(c4)-c4cc3ccc4OCCN)cc2)cc1 [Compound 126]
Result :: 0.79

Query :: Reported log10 of IC50 for CCCCc1ccc(-c2ccc(C(=O)N[C@@H](CN)C(=O)N(C)[C@@H]3C(=O)N[C@@H](C)C(=O)N[C@H](CC#N)Cc4ccc(OCCN)c(c4)-c4cc3ccc4OCCN)cc2)cc1 [Compound 127] : what is it?
Result :: 0.43

Query :: Which log10 of IC50 value is on record for CCCCc1ccc(-c2ccc(C(=O)N[C@@H](CCCN)C(=O)N(C)[C@@H]3C(=O)N[C@@H](C)C(=O)N[C@H](c4ncc(C(F)(F)F)[nH]4)Cc4ccc(OCCN)c(c4)-c4cc3ccc4OCCN)cc2)cc1 [Compound 140] ?
Result :: 2.57

FYI, the data here is from patent US11072635B2.
